Target: soluble uPAR (Homo sapiens, UniProt Q03405)
Sequence (Q03405 23-305 limits assumed): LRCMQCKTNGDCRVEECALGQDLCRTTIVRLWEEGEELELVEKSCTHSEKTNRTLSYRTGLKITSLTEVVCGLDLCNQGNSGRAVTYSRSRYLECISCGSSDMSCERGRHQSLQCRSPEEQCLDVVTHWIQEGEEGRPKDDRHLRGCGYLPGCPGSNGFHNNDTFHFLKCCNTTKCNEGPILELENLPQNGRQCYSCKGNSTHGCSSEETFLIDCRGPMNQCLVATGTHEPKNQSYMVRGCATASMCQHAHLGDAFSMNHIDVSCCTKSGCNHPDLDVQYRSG
Assay type: binding
Set-up: sUPAR, soluble truncated form of the urokinase receptor; made in house; host or cells: baculovirus-infected Sf9 insect cells
Settings: 2500.0
Protocol: Streptavidin, 100 μl (0.1 mg/ml) in 50 mM Na2CO3, pH 9.6, was added to MaxiSorp wells (Nunc), incubated overnight at 4 C, and then washed with PBS/BSA. […] After 15 minutes, the urea eluate was brought to neutral pH by addition of 2M Tris base and the bacteriophage titers of input stocks and elutions measured by plaque formation assay. Results were expressed as the percent of input bacteriophage which bind to the wells. […] The absorbance at 450 nm was then measured in a 96 well plate reader. […]
Square brackets hold non-standard residues; d marks the D form. Peptide text beside a SMILES is read from it.
REPORTED ENDPOINT: % Inhibition 2.5 uM (%)
Unit % implied. Number only.

I'd like to know its % Inhibition 2.5 uM. The molecule in question is CSCC[C@H](NC(=O)[C@H](Cc1ccc(O)cc1)NC(=O)CNC(=O)[C@@H](CC(C)C)NC(=O)[C@H](CO)NC(=O)[C@H](CC(C)C)NC(=O)[C@H](Cc1c[nH]cn1)NC(=O)[C@H](Cc1c[nH]cn1)NC(=O)[C@H](Cc1ccc(O)cc1)NC(=O)[C@@H](NC(=O)[C@H](CO)NC(=O)[C@H](CCC(=O)O)NC(=O)[C@H](C)N)[C@@H](C)O)C(=O)N[C@@H](Cc1ccc(O)cc1)C(=O)N[C@H](C(=O)N[C@@H](CC(C)C)C(=O)N[C@@H](CC(N)=O)C(N)=O)[C@@H](C)O [Analog 55] (H-AESTYHHLS[dL]GYMYTLN-NH2)
56

----------
molecular target: soluble uPAR (Homo sapiens); assay type: binding; set-up: sUPAR, soluble truncated form of the urokinase receptor; made in house; host or cells: baculovirus-infected Sf9 insect cells; conditions: 2500.0
Square brackets hold non-standard residues; d marks the D form. Peptide text beside a SMILES is read from it.
REPORTED ENDPOINT: % Inhibition 2.5 uM (%)
Unit % implied. Number only.

INSERT INTO assay_data (compound, subject_of_test, reported_endpoint, obs_value) VALUES
  ('CSCC[C@H](NC(=O)[C@H](Cc1ccc(O)cc1)NC(=O)CNC(=O)[C@H](CC(C)C)NC(=O)[C@H](CO)NC(=O)[C@H](CC(C)C)NC(=O)[C@H](Cc1c[nH]cn1)NC(=O)[C@H](Cc1c[nH]cn1)NC(=O)[C@H](Cc1ccc(O)cc1)NC(=O)[C@@H](NC(=O)[C@H](CO)NC(=O)[C@H](CCC(=O)O)NC(=O)[C@H](C)N)[C@@H](C)O)C(=O)N[C@@H](Cc1ccc(O)cc1)C(=O)N[C@H](C(=O)N[C@H](CC(C)C)C(=O)N[C@@H](CC(N)=O)C(N)=O)[C@@H](C)O [Analog 60] (H-AESTYHHLSLGYMYT[dL]N-NH2)', 'soluble uPAR (Homo sapiens)', '% Inhibition 2.5 uM', 22);

For the next question, use this compound.
I'd like to know its % Inhibition 2.5 uM. The compound in question is CSCC[C@H](NC(=O)[C@H](Cc1ccc(O)cc1)NC(=O)CNC(=O)[C@H](CC(C)C)NC(=O)[C@H](CO)NC(=O)[C@H](CC(C)C)NC(=O)[C@H](Cc1c[nH]cn1)NC(=O)[C@H](Cc1c[nH]cn1)NC(=O)[C@H](Cc1ccc(O)cc1)NC(=O)[C@@H](NC(=O)[C@H](CO)NC(=O)[C@@H](CCC(=O)O)NC(=O)[C@H](C)N)[C@@H](C)O)C(=O)N[C@@H](Cc1ccc(O)cc1)C(=O)N[C@H](C(=O)N[C@@H](CC(C)C)C(=O)N[C@@H](CC(N)=O)C(N)=O)[C@@H](C)O [Analog 47] (H-A[dE]STYHHLSLGYMYTLN-NH2)
35
